Target: TACE enzyme (Homo sapiens, UniProt P78536)
Sequence (P78536 215-824 limits assumed): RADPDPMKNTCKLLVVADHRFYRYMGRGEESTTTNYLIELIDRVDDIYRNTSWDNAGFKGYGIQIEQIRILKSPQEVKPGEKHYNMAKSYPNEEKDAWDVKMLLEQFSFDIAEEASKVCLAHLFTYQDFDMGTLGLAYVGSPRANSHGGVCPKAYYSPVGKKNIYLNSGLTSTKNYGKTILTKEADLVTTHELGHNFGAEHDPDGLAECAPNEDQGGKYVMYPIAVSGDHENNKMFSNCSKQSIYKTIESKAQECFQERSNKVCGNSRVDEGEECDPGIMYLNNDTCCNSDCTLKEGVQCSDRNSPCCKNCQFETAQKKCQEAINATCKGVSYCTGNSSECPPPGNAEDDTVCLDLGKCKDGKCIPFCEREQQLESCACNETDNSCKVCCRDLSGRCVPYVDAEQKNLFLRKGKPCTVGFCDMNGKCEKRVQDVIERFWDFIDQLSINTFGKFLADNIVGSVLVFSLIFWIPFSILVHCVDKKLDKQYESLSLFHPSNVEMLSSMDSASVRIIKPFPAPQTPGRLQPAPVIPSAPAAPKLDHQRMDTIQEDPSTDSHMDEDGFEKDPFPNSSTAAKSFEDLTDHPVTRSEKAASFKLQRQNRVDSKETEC
Assay: Enzymatic test of TACE inhibition (fluorescent substrate)
Format: biochemical
Conditions: enzymatic test, substrate 40 μM
readout_name: IC50 (nM)

# molecule, result_units, quantitative_readout
measured = [
    ("COc1ccc(COc2ccc(C(=O)NC[C@@H](C(=O)NO)N3CCN(S(C)(=O)=O)CC3)cc2)cc1 [Example 17]", "nM", 70),
]

(a) CC#CCOc1ccc(C(=O)NCC(C(=O)NO)N2CCN(S(C)(=O)=O)CC2)cc1 (stereo not drawn) [Example 1]
(b) Cc1cc(COc2ccc(C(=O)NC[C@@H](C(=O)NO)N3CCN(Cc4ccccc4)CC3)cc2)c2ccccc2n1 [Example 22]
Request: # min-compare on IC50 between a and b Answer with the label corresponding to your selection.
Result: a

(A) CCN1CCN([C@@H](CNC(=O)c2ccc(OCc3cc(C)nc4ccccc34)cc2)C(=O)NO)CC1 [Example 25]
(B) CS(=O)(=O)N1CCN([C@@H](CNC(=O)c2ccc(OCC3CC3)cc2)C(=O)NO)CC1 [Example 5]
Request: Pick the one with the larger IC50: A vs B Answer with the label corresponding to your selection.
Result: B

(P) CS(=O)(=O)N1CCN([C@@H](CNC(=O)c2ccc(OCc3ccnc4ccccc34)cc2)C(=O)NO)CC1 [Example 21]
(Q) CC#CCOc1ccc(C(=O)N(C)C[C@@H](C(=O)NO)N2CCN(S(C)(=O)=O)CC2)cc1 [Example 13]
(R) CC#CCOc1ccc(C(=O)NC[C@@H](C(=O)NO)N2CCN(S(=O)(=O)c3ccc(C)cc3)CC2)cc1 [Example 8]
Request: Ascending by IC50, please: list the molecules accordingly. Give the labels in the order requested.
Result: Q, R, P

(P) CS(=O)(=O)N1CCN([C@@H](CNC(=O)c2ccc(OCc3ccncc3)cc2)C(=O)NO)CC1 [Example 18]
(Q) COc1ccc(C(=O)NC[C@@H](C(=O)NO)N2CCN(S(C)(=O)=O)CC2)cc1 [Example 4]
(R) CC#CCOc1ccc(C(=O)NC[C@@H](C(=O)NO)N2CCN(S(C)(=O)=O)CC2)cc1 [Example 2]
(S) CS(=O)(=O)N1CCN([C@@H](CNC(=O)c2ccc(OCc3ccccc3)cc2)C(=O)NO)CC1 [Example 6]
Request: Ascending by IC50, please: list the molecules accordingly. Give the labels in the order requested.
Result: R, S, P, Q
